- study system: T1, CBD-toxin A-Fc (Clostridium difficile, UniProt P16154 1848-2710)
- T1 construct: also called CBD-A; C-term Toxin A
- assay text: SPR Biacore, mAb captured, 100 nM CBD-A-Fc flowed
value type: binding (RU)
Please state the figure in RU; there is no need to write the unit.

// H1H3337P (antibody, V domains shown) VH: EVQLVESGGGLVQPGGSLRLSCAASGFTFSIYAMSWVRQAPGKGLEWVSGISGSGGRTYYADSVKGRFTISRDNSKNTLYLQMNSLRVEDTAVYYCARGWELLNFWGQGTLVTVSS VL: DIQMTQSPSSLSASVGDRVTITCRASQGISNNLAWFQQKPGKAPKSLIYAASSLKSGVPSKFSGSGSGTDFTLTINSLQPEDFATYYCHQYNSYPPTFGPGTKVDIKR : binding (RU) value = -17
